- experimental.system: UniProtKB Q6DWJ6
- assay.notes: GPR139 Agonist titration / agonist counterscreen assay (calcium detection, HEK-GPR139 cells)
- Format: cell-based
- Design: expressed in transfected cells; host or cells: HEK Aequorin cells, Maxcyte transient transfection
- protocol.conditions: GPR139 Agonist Activity; fitted dose-response curve
Provide the recorded Hill Slope for the entries that follow.
Give a plain numeric answer without units written out.

Incoming: Quick one: Hill Slope for Cc1ccc(CNC(=O)COC(=O)c2ccc(Br)o2)cc1 ?
Outgoing: 0.79

Incoming: Thanks! And O=C(COc1ccccc1Cl)NNC(=O)CSc1ccc2ccccc2c1 ?
Outgoing: 0.77

Incoming: Thanks! And C=C1C(CC(=C)C2Cc3ccc4ccccc4c3C2)=CC(c2ccccc2)=CC1C (centres unmarked) ?
Outgoing: 0.95

Incoming: Thanks! And O=C(NC1CC1)C1CC(Cc2cccc3ccccc23)=NO1 (centres unmarked) ?
Outgoing: 1.05

Incoming: Thanks! And CC(CCc1ccccc1)NC(=O)Cn1cc2c(n1)CCCC2 (centres unmarked) ?
Outgoing: 0.09

Incoming: Thanks! And O=C(CC(c1ccccc1)c1ccccc1)Oc1coc(CSc2ncccn2)cc1=O ?
Outgoing: 1.13

Incoming: Thanks! And CCCn1c(CCC(=O)NCCc2ccc(OCC)cc2)nc2cccnc21 ?
Outgoing: 0.67

Incoming: Thanks! And COc1cc(NC(=O)NCCc2ccc3c(c2)CCCN3C)cc(OC)c1 ?
Outgoing: 0.82

Incoming: Thanks! And O=C(Cc1cccc2ccccc12)Nc1nnc(-c2cccs2)o1 ?
Outgoing: 0.80

Incoming: Thanks! And Cc1ccccc1CS(=O)(=O)CCC(=O)NC(C)c1ccccc1 (centres unmarked) ?
Outgoing: 0.70

Incoming: Thanks! And COc1ccc(CCC(=O)Nc2ccc(-c3cn[nH]c3)c(OC)c2)cc1 ?
Outgoing: 1.31

----------
Provide the recorded Lipophilic Efficiency (logP) for the entries that follow.
- experimental.system: GPR139 (Homo sapiens)
- Sequence (Q6DWJ6 whole entry): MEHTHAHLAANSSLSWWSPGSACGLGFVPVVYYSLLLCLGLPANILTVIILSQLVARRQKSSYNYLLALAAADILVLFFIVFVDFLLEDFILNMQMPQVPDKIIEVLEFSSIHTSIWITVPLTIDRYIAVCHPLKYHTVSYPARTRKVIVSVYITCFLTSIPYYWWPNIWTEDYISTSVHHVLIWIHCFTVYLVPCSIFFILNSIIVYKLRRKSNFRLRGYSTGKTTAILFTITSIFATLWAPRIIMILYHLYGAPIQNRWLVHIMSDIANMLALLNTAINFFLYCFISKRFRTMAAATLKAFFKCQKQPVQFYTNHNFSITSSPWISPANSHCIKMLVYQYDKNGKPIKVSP
- assay.notes: GPR139 Agonist titration / agonist counterscreen assay (calcium detection, HEK-GPR139 cells)
- Format: cell-based
- Parameters: expressed in transfected cells; host or cells: HEK Aequorin cells, Maxcyte transient transfection
- protocol.conditions: GPR139 Agonist Activity; based on logP
Give a plain numeric answer without units written out.

Incoming: Quick one: Lipophilic Efficiency (logP) for Cc1c(Br)c([N+](=O)[O-])nn1CC(=O)NCCc1ccc(Cl)cc1 ?
Outgoing: 4.08

Incoming: Thanks! And Cc1ccc(S(=O)(=O)NC(=O)NC(C)Cc2ccccc2)cc1 (stereo not shown) ?
Outgoing: 4.07

Incoming: Thanks! And Cc1ccc(NC(=O)Cn2ncc3c2-c2ccccc2OC3)cc1F ?
Outgoing: 4.08

Incoming: Thanks! And O=C(CC(C(=O)N1CCc2ccccc21)n1ccnc1)N1CCCCCC1 (stereo not shown) ?
Outgoing: 4.88

----------
- experimental.system: GPR139 (Homo sapiens)
- assay.notes: GPR139 Antagonist titration assay (calcium detection, HEK-GPR139 cells, vs EC80 of S-JNJ-63533054)
Classification field: enter met for GPR139 Antagonist Activity Ligand Efficiency values not below 0.3, not met for values below it.

Incoming: Test whether the molecule Nc1cccc(C(=O)Nc2cc(O)n(-c3c(Cl)cc(Cl)cc3Cl)n2)c1 records GPR139 Antagonist Activity Ligand Efficiency of 0.3 or higher.
Outgoing: not met

Incoming: Thanks! And CCOC(=O)C(CC)Oc1ccc2c(C)c(Cc3ccccc3)c(=O)oc2c1 (centres unmarked) ?
Outgoing: not met

Incoming: Thanks! And O=C(CSc1nc(-c2ccccc2)cn1-c1ccccc1)Nc1ccc(F)cc1 ?
Outgoing: not met

Incoming: Thanks! And CCN1C(=O)c2cccc3c(S(=O)(=O)Nc4cccc(F)c4)ccc1c23 ?
Outgoing: not met

Incoming: Thanks! And COc1ccc(C(C(=O)NC(C)c2ccccc2)(c2ccccc2)c2ccccc2)cc1 (centres unmarked) ?
Outgoing: not met

Incoming: Thanks! And CCCOC(=O)c1ccc(NC(=O)CSc2ccccc2)cc1 ?
Outgoing: met

Incoming: Thanks! And Cc1c(-c2cccc(NC(=O)C3c4ccccc4Oc4ccccc43)c2)nc2ncccn12 ?
Outgoing: not met

Incoming: Thanks! And O=C(NCCCN1CCCC1=O)c1ccc(NCc2ccc(F)cc2)c(S(=O)(=O)Nc2cccc(C(F)(F)F)c2)c1 ?
Outgoing: not met

Incoming: Thanks! And CC(=O)N1N=C(c2ccc(C)cc2)CC1c1ccccc1F (centres unmarked) ?
Outgoing: met

Incoming: Thanks! And COc1ccc(-n2cc(-c3ccccc3)nc2SCC(=O)Nc2ccccc2C)cc1 ?
Outgoing: not met

Incoming: Thanks! And CCOC(=O)N1CCC(NC(=O)c2cnn3c(O)c(Cc4cccc(C)c4)c(C)nc23)CC1 ?
Outgoing: not met

Incoming: Thanks! And Cc1cccc(-n2ccnc2SCC(=O)Nc2cccc(C)c2C)c1 ?
Outgoing: met

Incoming: Thanks! And Cc1ccc(-n2cc(-c3ccccc3)nc2SCC(=O)Nc2ccccc2)cc1 ?
Outgoing: not met

Incoming: Thanks! And CCCCCCOC(=S)SCC(=O)Nc1ccccc1 ?
Outgoing: met

Incoming: Thanks! And CCOC(=O)c1ccc2nc(C)c3c(c2c1)OC(C(C)(Cl)Br)C3 (centres unmarked) ?
Outgoing: met

Incoming: Thanks! And O=C(Nc1ccccc1C(=O)O)c1ccc(Oc2ccc([N+](=O)[O-])cc2)cc1 ?
Outgoing: not met

Incoming: Thanks! And O=c1c(-c2ccc(Cl)cc2)c(C(F)(F)F)oc2cc(O)ccc12 ?
Outgoing: met

Incoming: Thanks! And CCOC(=O)c1c(C)nc2c(c1-c1ccc(F)cc1)C(=O)CC(c1ccc(Cl)cc1)C2 (centres unmarked) ?
Outgoing: not met

Incoming: Thanks! And Cc1cc(C)cc(-n2cnc3cc(C(=O)NCc4ccccc4Cl)ccc32)c1 ?
Outgoing: not met

Incoming: Thanks! And O=C(CS(=O)(=O)c1ccccc1)Nc1ccc(Oc2ccccc2)cc1 ?
Outgoing: met

Incoming: Thanks! And Cc1ccc(Oc2ccc(OCC(=O)N3C(C)CCCC3C)cc2)cc1 (centres unmarked) ?
Outgoing: not met

Incoming: Thanks! And N#CCC(=O)c1ccccc1Oc1ccc(F)cc1 ?
Outgoing: met

Incoming: Thanks! And O=C(CCCC(=O)OCC(Cl)=C(Cl)Cl)Nc1ccccc1F ?
Outgoing: met

Incoming: Thanks! And CCn1cc(Cl)c(C(=O)OCC23CCC4c5ccccc5OC(C)(CC2C)C4C3C)n1 (centres unmarked) ?
Outgoing: not met
